- Test system: gray mold fungus (Botrytis cinerea)
- run.description: Cucumber leaf disk preventive test against gray mold
- Assay type: in vivo
- conditions: single compound, treatment concentration 0.5 ppm, 15° C., four days
- Method: True leaf of cucumber is punched out with cork borer to 13 mm in diameter to prepare a leaf disk. In 24 well microwell plate that is dispensed with 1 ml 0.8% water agar, the leaf disk is placed such that the upper side of the leaf is in an upward direction. […] After leaving to stand the leaf disk in a growth chamber set up at 15° C. for four days, an onset area on the leaf is measured and then calculated an onset area rate (hereinafter, referred to as an onset area rate of treated group). […]
Assign class by preventive value (%): not lower than 20% means True; lower than 20% means False.

Worked examples follow.
{"columns": ["chemical.structure", "class.name"],
 "data": [
  ["CNC(=O)/C(=N/OC)c1ccccc1Oc1ccccc1", "False"],
  ["COC(=O)NCc1cc(/C(C)=N/OCc2cccc(C)n2)ccc1Cl", "True"],
  ["CO/N=C(/C(=O)OC)c1ccccc1COc1ccccc1C", "True"],
  ["CNC(=O)/C(=N/OC)c1ccccc1CO/N=C(C)/C(=N/OC)C(/C)=N/OC", "False"],
  ["CO/N=C(/C1=NOCCO1)c1ccccc1Oc1ncnc(Oc2ccccc2Cl)c1F", "True"],
  ["CO/C=C(/C(=O)OC)c1ccccc1COc1cccc(C(F)(F)F)n1", "False"],
  ["COC(=O)N(OC)c1ccccc1COc1ccn(-c2ccc(Cl)cc2)n1", "False"],
  ["CON=C(C(=O)OC)c1ccccc1CON=C(C)c1cccc(C(F)(F)F)c1", "False"]
]}

# input Kindly determine if preventive value (%) recorded for CNC(=O)/C(=N/OC)c1ccccc1COc1cc(C)ccc1C is above or exactly 20%.
# output True

# input Kindly determine if preventive value (%) recorded for CO/C=C(/C(=O)OC)c1ccccc1Oc1cc(Oc2ccccc2C#N)ncn1 is above or exactly 20%.
# output True
